Form field: activity change, negative = inhibition (one value per entry).
Assay: antibacterial activity against Clostridioides difficile – 10-point retest, dose response (AID 1259246)
Conditions: Clostridioides difficile clinical isolate growth, OD600, 24 h; at 135 µM (top of the series)
Inconclusive results are not listed. Activity calls are given as the source filed them.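 The calls were made as follows: active = valid dose-response fit whose half-maximal growth-inhibiting concentration is at or below a set limit above the top tested dose; inconclusive = flat fit with effect between 30 and 70%, or poor fit; inactive = half-maximal concentration above a set limit.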

| Substance smiles | activity change, negative = inhibition |
| --- | --- |
| CO[C@H]1CN(C)C(=O)c2cc(NC(=O)c3ccccc3)ccc2OC[C@H](C)NC[C@H]1C | -3.19% (inactive) |
| C[C@@H]1CN([C@@H](C)CO)C(=O)Cc2cc(NC(=O)CCC(F)(F)F)ccc2O[C@H]1CN(C)Cc1ccc(Oc2ccccc2)cc1 | 8.79% (inactive) |
| C[C@@H]1CN([C@H](C)CO)C(=O)Cc2cc(NS(C)(=O)=O)ccc2O[C@@H]1CN(C)Cc1ccc(-c2ccccc2)cc1 | 20% (inactive) |
| O=C(C[C@H]1C[C@@H]2c3cc(NC(=O)C4CCC4)ccc3O[C@@H]2[C@@H](CO)O1)NCc1ccc2c(c1)OCO2 | -9.69% (inactive) |
| C[C@H]1CN([C@@H](C)CO)C(=O)Cc2cc(NC(=O)C3CC3)ccc2O[C@@H]1CN(C)Cc1ccc(Oc2ccccc2)cc1 | 17.9% (inactive) |
| C[C@@H]1CN([C@H](C)CO)C(=O)Cc2cc(NC(=O)C3CC3)ccc2O[C@@H]1CN(C)Cc1ccc(C(F)(F)F)cc1 | 18% (inactive) |
| O=C(C[C@H]1C[C@H]2c3cc(NC(=O)Nc4ccc(F)cc4)ccc3O[C@H]2[C@@H](CO)O1)NC1CCCCC1 | -1.5% (inactive) |
| O=C(Nc1ccc(-c2ccccc2)cc1)[C@H]1[C@H](CO)[C@H]2Cn3c(cccc3=O)[C@H]2N1CC1CCCCC1 | 32.6% (inactive) |
| C[C@@H]1CN([C@H](C)CO)C(=O)Cc2cc(NC(=O)Nc3ccccc3)ccc2O[C@@H]1CN(C)Cc1ccc(-c2ccccc2)cc1 | 12.7% (inactive) |
| Cc1ccc(S(=O)(=O)N(C)C[C@H]2Oc3ccc(NS(C)(=O)=O)cc3C(=O)N([C@@H](C)CO)C[C@H]2C)cc1 | 9.46% (inactive) |
| O=C(C[C@@H]1C[C@@H]2c3cc(NS(=O)(=O)c4ccc(F)cc4)ccc3O[C@@H]2[C@@H](CO)O1)NCc1ccc(-c2ccccc2)cc1 | 18.3% (inactive) |
| C[C@H](CO)N1C[C@H](C)[C@H](CN(C)Cc2ccc(-c3ccccc3)cc2)Oc2ccc(NC(=O)C3CC3)cc2CC1=O | 13.1% (inactive) |
| Cc1ccc(S(=O)(=O)N[C@H]2CC[C@H](CCNS(=O)(=O)Cc3ccccc3)O[C@@H]2CO)cc1 | -4.21% (inactive) |
| C[C@@H]1CN([C@@H](C)CO)C(=O)Cc2cc(NS(C)(=O)=O)ccc2O[C@@H]1CN(C)Cc1ccc(Oc2ccccc2)cc1 | 7.12% (inactive) |
| C[C@@H]1CN([C@H](C)CO)C(=O)Cc2cc(N(C)C)ccc2O[C@@H]1CN(C)Cc1ccc(Oc2ccccc2)cc1 | 23.7% (inactive) |

---

Assay: antibacterial activity against Clostridioides difficile – 10-point retest, dose response (AID 1259246)
Settings: Clostridioides difficile clinical isolate growth, OD600, 24 h; at 135 µM (top of the series)
Inconclusive results are not listed. Active and inactive are the calls of the source.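 The calls were made as follows: active = valid dose-response fit whose half-maximal growth-inhibiting concentration is at or below a set limit above the top tested dose; inconclusive = flat fit with effect between 30 and 70%, or poor fit; inactive = half-maximal concentration above a set limit.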
Parameter measured: activity change, negative = inhibition

| Substance smiles | Parameter measured | Result |
| --- | --- | --- |
| C[C@@H]1CN([C@@H](C)CO)C(=O)Cc2cc(NS(=O)(=O)c3ccccc3)ccc2O[C@@H]1CN(C)Cc1ccc(-c2ccccc2)cc1 | activity change, negative = inhibition | 17.3% (inactive) |
| C[C@@H]1CN([C@H](C)CO)C(=O)Cc2cc(NC(=O)C3CC3)ccc2O[C@@H]1CN(C)Cc1ccc(-c2ccccc2)cc1 | activity change, negative = inhibition | 20.9% (inactive) |
| COc1ccc(S(=O)(=O)N(C)C[C@@H]2Oc3ccc(NC(=O)CCCN(C)C)cc3CC(=O)N([C@H](C)CO)C[C@H]2C)cc1 | activity change, negative = inhibition | -7.92% (inactive) |

---

Assay: antibacterial activity against Clostridioides difficile – 10-point retest, dose response (AID 1259246)
Details: Clostridioides difficile clinical isolate growth, OD600, 24 h; at 135 µM (top of the series)
Records with an inconclusive call do not appear. Activity calls are given as the source filed them.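 The calls were made as follows: active = valid dose-response fit whose half-maximal growth-inhibiting concentration is at or below a set limit above the top tested dose; inconclusive = flat fit with effect between 30 and 70%, or poor fit; inactive = half-maximal concentration above a set limit.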
Parameter measured: activity change, negative = inhibition

| Substance smiles | Result |
| --- | --- |
| CO[C@H]1CN(C)C(=O)c2cc(NC(=O)c3nc4ccccc4s3)ccc2OC[C@H](C)NC[C@H]1C | -0.247% (inactive) |
| COc1ccc(NC(=O)N(C)C[C@@H]2Oc3ccc(NC(=O)CCCN(C)C)cc3CC(=O)N([C@H](C)CO)C[C@H]2C)cc1 | 1.15% (inactive) |
| COc1ccc(CN(C)C[C@H]2Oc3ccc(NC(=O)C4CC4)cc3CC(=O)N([C@H](C)CO)C[C@H]2C)cc1 | 0.998% (inactive) |
| COc1ccccc1CNC(=O)C[C@H]1C[C@H]2c3cc(NC(=O)NC4CCCC4)ccc3O[C@H]2[C@@H](CO)O1 | 4.17% (inactive) |
| O=S(=O)(Cc1ccccc1)NCC[C@H]1CC[C@H](NS(=O)(=O)c2ccc(F)cc2)[C@H](CO)O1 | -6.92% (inactive) |
| C[C@H]1CN([C@@H](C)CO)C(=O)c2cccc(NC(=O)Nc3ccc4c(c3)OCO4)c2O[C@H]1CN(C)Cc1ccc(-c2ccccc2)cc1 | 24.8% (inactive) |
| C[C@H]1CN([C@@H](C)CO)C(=O)Cc2cc(NC(=O)CCCN(C)C)ccc2O[C@@H]1CN(C)Cc1ccc(-c2ccccc2)cc1 | -3.4% (inactive) |
| C[C@@H]1CN([C@H](C)CO)C(=O)Cc2cc(NC(=O)C3CC3)ccc2O[C@H]1CN(C)C | 32.9% (inactive) |
| C[C@@H]1CN([C@H](C)CO)C(=O)c2cc(NC(=O)Nc3cccc4ccccc34)ccc2O[C@@H](C)CCCCO[C@H]1CN(C)S(=O)(=O)c1cn(C)cn1 | 33.1% (inactive) |
| O=C(C[C@@H]1C[C@H]2c3cc(NC(=O)C4CCC4)ccc3O[C@H]2[C@@H](CO)O1)NCc1ccc(Cl)cc1 | 6.13% (inactive) |
| CO[C@H]1CN(C)C(=O)c2cc(NS(=O)(=O)c3ccc(-c4ccccc4)cc3)ccc2OC[C@H](C)NC[C@H]1C | 10.6% (inactive) |
| C[C@@H]1CN([C@@H](C)CO)C(=O)c2cc(NC(=O)Nc3cccc4ccccc34)ccc2O[C@@H](C)CCCCO[C@@H]1CN(C)S(=O)(=O)c1ccc(F)cc1 | 17.6% (inactive) |
| C[C@H]1CN([C@@H](C)CO)C(=O)Cc2cc(NC(=O)C3CC3)ccc2O[C@@H]1CN(C)Cc1ccc(-c2ccccc2)cc1 | 17.1% (inactive) |
| C[C@@H]1CN([C@@H](C)CO)C(=O)Cc2cc(NC(=O)CCCN(C)C)ccc2O[C@@H]1CN(C)Cc1ccc(Oc2ccccc2)cc1 | 18% (inactive) |
| COc1ccccc1CNC(=O)C[C@H]1C[C@@H]2c3cc(NC(=O)NC4CCCC4)ccc3O[C@@H]2[C@H](CO)O1 | 4.13% (inactive) |

---

Experiment: antibacterial activity against Clostridioides difficile – 10-point retest, dose response (AID 1259246)
Details: Clostridioides difficile clinical isolate growth, OD600, 24 h; at 135 µM (top of the series)
Results filed as inconclusive are left out. Calls of active or inactive are those of the source.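 The calls were made as follows: active = valid dose-response fit whose half-maximal growth-inhibiting concentration is at or below a set limit above the top tested dose; inconclusive = flat fit with effect between 30 and 70%, or poor fit; inactive = half-maximal concentration above a set limit.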
Form field: activity change, negative = inhibition (one value per entry).

| Substance smiles | activity change, negative = inhibition |
| --- | --- |
| COc1ccc(-c2ccc([C@H]3[C@H](C#N)N(C(=O)C4CC4)[C@H]3CO)cc2)cc1 | -0.086% (inactive) |
| C[C@@H]1CN([C@H](C)CO)C(=O)Cc2cc(NC(=O)CCC(F)(F)F)ccc2O[C@H]1CN(C)Cc1ccc(-c2ccccc2)cc1 | 15.9% (inactive) |
| C[C@@H]1CN([C@@H](C)CO)C(=O)Cc2cc(NC(=O)C3CC3)ccc2O[C@H]1CN(C)Cc1ccc(Oc2ccccc2)cc1 | 48% (inactive) |
| C[C@@H]1CN([C@H](C)CO)C(=O)Cc2cc(NC(=O)c3ccncc3)ccc2O[C@@H]1CN(C)Cc1ccc(-c2ccccc2)cc1 | 20.6% (inactive) |
| CNC[C@H]1Oc2ccc(NC(=O)C3CC3)cc2CC(=O)N([C@@H](C)CO)C[C@H]1C | -0.275% (inactive) |
| C[C@H]1CN([C@@H](C)CO)C(=O)Cc2cc(NC(=O)C3CC3)ccc2O[C@H]1CN(C)Cc1ccc(Oc2ccccc2)cc1 | 26.6% (inactive) |
| O=C(N[C@H]1CC[C@H](CCNS(=O)(=O)Cc2ccccc2)O[C@H]1CO)c1ccccc1F | -3.44% (inactive) |
| C[C@@H]1CCCCO[C@@H](CN(C)S(=O)(=O)c2ccc(F)cc2)[C@@H](C)CN([C@H](C)CO)C(=O)c2cc(NC(=O)Nc3cccc4ccccc34)ccc2O1 | 14.6% (inactive) |
| CO[C@@H]1CN(C)C(=O)c2cc(NC(=O)c3nc4ccccc4s3)ccc2OC[C@@H](C)N(Cc2ccncc2)C[C@H]1C | 14.2% (inactive) |
| C[C@@H]1CN([C@H](C)CO)C(=O)c2cccc(NC(=O)Nc3ccc4c(c3)OCO4)c2O[C@@H]1CN(C)Cc1ccc(-c2ccccc2)cc1 | 12.1% (inactive) |
| C[C@H]1CN([C@@H](C)CO)C(=O)Cc2cc(NC(=O)CCCN(C)C)ccc2O[C@H]1CN(C)Cc1ccc(Oc2ccccc2)cc1 | 10.5% (inactive) |
| C[C@@H]1CN([C@@H](C)CO)C(=O)Cc2cc(NC(=O)Nc3ccccc3)ccc2O[C@@H]1CN(C)Cc1ccc(-c2ccccc2)cc1 | 23.5% (inactive) |
| C[C@@H]1CN([C@H](C)CO)C(=O)Cc2cc(NS(=O)(=O)c3ccccc3)ccc2O[C@@H]1CN(C)Cc1ccc(-c2ccccc2)cc1 | 31.9% (inactive) |
| CO[C@H]1CN(C)C(=O)c2cc(NC(=O)c3nc4ccccc4s3)ccc2OC[C@H](C)N(Cc2ccncc2)C[C@H]1C | 20.9% (inactive) |
| C[C@@H]1CN([C@@H](C)CO)C(=O)Cc2cc(NC(=O)C3CC3)ccc2O[C@@H]1CN(C)Cc1ccc(Cl)c(Cl)c1 | 16.4% (inactive) |
